- Test system: platelet aggregation induced by the TXA2 agonist, U46619
- ASSAY NOTES: Platelet aggregation in man (PRP, U46619-induced)
- Format: cell-based
- RUN PARAMETERS: human PRP, procedure of Example 19, U46619 0.3 mM, read-out: IC50 (inhibition of U46619-induced platelet aggregation)
Structures can show the parent of a compound that is named as a salt.
Entries and their IC50
ENDPOINT: IC50

* O=C(O)CCn1c2c(c3ccccc31)C[C@H](NS(=O)(=O)c1ccc(F)cc1)CC2 [BAY U3405, reference compound] | 0.18 µM
* Cc1ccc2c(c1CCC(=O)O)CCC(NS(=O)(=O)c1ccc(Cl)cc1)C2 (centres unmarked) [Example 1, sodium salt] | 0.084 µM

====

Sequence of the target: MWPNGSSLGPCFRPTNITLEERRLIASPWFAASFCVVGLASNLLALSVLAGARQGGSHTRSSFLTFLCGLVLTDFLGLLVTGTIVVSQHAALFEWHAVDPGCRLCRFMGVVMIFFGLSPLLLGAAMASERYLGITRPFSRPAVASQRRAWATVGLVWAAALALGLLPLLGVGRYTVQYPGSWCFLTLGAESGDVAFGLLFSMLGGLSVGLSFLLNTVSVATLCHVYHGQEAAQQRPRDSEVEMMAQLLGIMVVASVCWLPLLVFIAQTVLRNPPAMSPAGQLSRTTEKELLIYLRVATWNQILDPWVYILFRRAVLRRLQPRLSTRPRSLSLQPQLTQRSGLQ
Structures can show the parent of a compound that is named as a salt.
ENDPOINT: Ki (nM)

- Cc1ccc2c(c1CCC(=O)O)CCC(NS(=O)(=O)c1ccc(Cl)cc1)C2 (centres unmarked) [Example 1, sodium salt]: 0.96
- O=C(O)CCn1c2c(c3ccccc31)C[C@H](NS(=O)(=O)c1ccc(F)cc1)CC2 [BAY U3405, reference compound]: 3.61
